- Target desc: IDO (Homo sapiens (Human), UniProt P14902)
- Sequence (P14902 whole entry): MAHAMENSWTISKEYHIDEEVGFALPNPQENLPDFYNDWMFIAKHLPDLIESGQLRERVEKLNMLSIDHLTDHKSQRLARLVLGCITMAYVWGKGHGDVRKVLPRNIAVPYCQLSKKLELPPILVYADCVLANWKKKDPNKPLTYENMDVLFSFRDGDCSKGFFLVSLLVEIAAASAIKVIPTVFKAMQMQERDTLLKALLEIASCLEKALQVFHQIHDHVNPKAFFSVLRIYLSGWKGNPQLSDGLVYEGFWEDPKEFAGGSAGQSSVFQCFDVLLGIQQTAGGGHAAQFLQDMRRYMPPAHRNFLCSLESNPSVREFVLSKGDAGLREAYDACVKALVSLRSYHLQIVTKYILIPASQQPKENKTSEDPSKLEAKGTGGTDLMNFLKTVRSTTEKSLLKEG
- Assay summary: SKOV3 kynurenine cell-based assay (IDO induced by IFN-γ)
- Experimental context: SKOV3 human ovarian adenocarcinoma cells, 500 ng/ml IFN-γ, 500 μM L-tryptophan, 48 hours
Recorded metric: SKOV3 Kynurenine cell based assay, pIC50

Recorded SKOV3 Kynurenine cell based assay, pIC50, per entry:
CS(=O)(=O)N1CCN(c2cc(C(F)(F)F)cc3cncn23)CC1; + (+ = pIC50 4.00-4.49)
CC(=O)N1CCN(c2cc(C(F)(F)F)cc3cncn23)CC1; + (+ = pIC50 4.00-4.49)
CS(=O)(=O)Nc1ccc(C2CCN(c3cc(C(F)(F)F)cc4cncn34)CC2)cc1; +++ (+++ = pIC50 ≥5.50)
CS(=O)(=O)N1CCN(c2cc(C(F)(F)F)cn3cncc23)CC1; + (+ = pIC50 4.00-4.49)
O=C(Nc1cccn2cncc12)c1ccccc1; + (+ = pIC50 4.00-4.49)
CC1(C)CN(c2cc(Br)cc3cncn23)CCN1S(C)(=O)=O; +++ (+++ = pIC50 ≥5.50)

input: If you can, please state the reported SKOV3 Kynurenine cell based assay, pIC50 value of CC(=O)N1CCN(c2cc(Cl)cc3cncn23)CC1(C)C .
output: +++ (+++ = pIC50 ≥5.50)
